- Protocol Text: Selectivity index, ratio of TC50 for human SK-MEL-28 cells to EC50 for human SK-MEL-28 cells
Value Type: Selectivity Index
Write the number on its own, no unit after it.

CCSc1ccc2c(c1)C1=Nc3c4ccc(SCC)cc4c4n3[B-]3(OCc5ccc6c(c5)OCCOCCOCCOCCOCCO6)n5c(c6cc(SCC)ccc6c5=N4)=NC2=[N+]13 (centres undefined)    6300

Let's switch to this compound now.
Hello, please tell me recorded Selectivity Index for this one: Ic1ccc2c(c1)C1=[N+]3C2=Nc2c4ccc(I)cc4c4n2[B@-]3(OCc2ccc3c(c2)OCCOCCOCCOCCOCCO3)n2c(c3cc(I)ccc3c2=N4)=N1
1891
